System: VCaP cells
Experiment: VCaP growth inhibition assay (CTG)
Format: cell-based
Conditions: Homo sapiens, 216 h, 30 pM R1881, 9 days
pIC50: −log10 of the molar value.
So I've got a bunch of compounds here, and I need their pIC50 values.

[in] Form field: reported pIC50 of `CC(=O)N1CCc2c(c(N3CCCc4cc(-c5cnn(C)c5)c(C(F)F)cc43)nn2C2CCN(C(=O)C3CCN(c4ccc(C(=O)N[C@H]5CC[C@H](Oc6ccc(C#N)c(Cl)c6)CC5)cc4)CC3)CC2)C1`
[out] ≥ 10.00

[in] Form field: reported pIC50 of CO[C@H]1CN(c2ccc(C(=O)N[C@H]3CC[C@H](Oc4ccc(C#N)c(Cl)c4)CC3)nn2)CC[C@@H]1CN1CCC(n2nc(N3CCCc4cc(-c5cnn(C)c5)c(C(F)F)cc43)c3c2CCN(C(C)=O)C3)CC1 (stereo in doubt)
[out] ≥ 10.00

[in] Form field: reported pIC50 of `C[C@@H]1CC(=O)Nc2cc(C3CCN(CC4CCN(c5ccc(C(=O)N[C@H]6CC[C@H](Oc7ccc(C#N)c(Cl)c7)CC6)nn5)CC4)CC3)cc(-c3ccc4c(c3)c(-c3cnn(C)c3)nn4C)c2N1`
[out] ≥ 10.00

[in] Form field: reported pIC50 of `CC(=O)N1CCc2c(c(-c3cccc4cc(-c5ccc(COCC6CCN(c7ccc(C(=O)N[C@H]8CC[C@H](Oc9ccc(C#N)c(Cl)c9)CC8)nn7)CC6)nc5)ncc34)nn2C)C1`
[out] ≥ 10.00

[in] Form field: reported pIC50 of `CC(=O)N1CCc2c(c(N3CCCc4cc(C#N)ccc43)nn2C2CCN(C[C@H]3CCN(c4ccc(C(=O)N[C@H]5CC[C@H](Oc6ccc(C#N)c(Cl)c6)CC5)nn4)C[C@H]3C)CC2)C1`
[out] 9.00 to 10.00

[in] Form field: reported pIC50 of `CC(=O)N1CCc2c(c(N3CCCc4cc(-c5cnn(C)c5)c(C(F)F)cc43)nn2[C@H]2CC[C@H](CN3CCN(c4ccc(C(=O)N[C@H]5CC[C@H](Oc6ccc(C#N)c(Cl)c6)CC5)nn4)CC3)CC2)C1`
[out] ≥ 10.00

[in] Form field: reported pIC50 of CC(=O)N1CCc2c(c(N3CCCc4cc(C#N)c(C(F)F)cc43)nn2C2CCN(CC3CCN(c4ccc(C(=O)N[C@H]5CC[C@H](Oc6ccc(C#N)c(Cl)c6)CC5)nn4)CC3(C)C)CC2)C1 (stereo partly drawn)
[out] ≥ 10.00

[in] Form field: reported pIC50 of `CC(=O)N1CCc2c(c(N3CCCc4nc(-c5ccc(CCC6CCN(c7ccc(C(=O)N[C@H]8CC[C@H](Oc9ccc(C#N)c(Cl)c9)CC8)nn7)CC6)nc5)ncc43)nn2C2CCOCC2)C1`
[out] 9.00 to 10.00

[in] Form field: reported pIC50 of CC(=O)N1CCc2c(c(N3CCCc4cc(-c5cnn(C)c5)c(C(F)F)cc43)nn2C2CCN(C3CC(C#Cc4ccc(C(=O)N[C@H]5CC[C@H](Oc6ccc(C#N)c(Cl)c6)CC5)nn4)C3)CC2)C1 (stereo partly drawn)
[out] ≥ 10.00

[in] Form field: reported pIC50 of `CC(=O)N1CCc2c(c(-c3cccc4cc(-c5cnn(CCC6CCN(c7ccc(C(=O)N[C@H]8CC[C@H](Oc9ccc(C#N)c(Cl)c9)CC8)nn7)CC6)c5)ncc34)nn2C2CC2)C1`
[out] 9.00 to 10.00

[in] Form field: reported pIC50 of `CC(=O)N1CCc2c(c(N3CCCc4cc(-c5cnn(C)c5)c(C(F)F)cc43)nn2[C@H]2CC[C@@H](C3CCC4(CC3)CN(c3ccc(C(=O)N[C@H]5CC[C@H](Oc6ccc(C#N)c(Cl)c6)CC5)nn3)C4)CC2)C1`
[out] 9.00 to 10.00

[in] Form field: reported pIC50 of `CC(=O)N1CCc2c(c(N3CCCc4cc(C#N)c(C(F)F)cc43)nn2C2CCN(C[C@H]3[C@H](C)CN(c4ccc(C(=O)N[C@H]5CC[C@H](Oc6ccc(C#N)c(Cl)c6)CC5)nn4)C[C@@H]3C)CC2)C1`
[out] ≥ 10.00

[in] Form field: reported pIC50 of `CC(=O)N1CCc2c(c(N3CCCc4cc(-c5cnn(C)c5)c(C(F)F)cc43)nn2C2CCN(C(=O)C3CCN(c4ccc(C(=O)N[C@H]5CC[C@H](Oc6ccc(C#N)c(Cl)c6)CC5)nn4)CC3)CC2)C1`
[out] ≥ 10.00

[in] Form field: reported pIC50 of `CC(=O)N1CCc2c(c(N3CCCc4cc(-c5cnn(C)c5)c(C(F)F)cc43)nn2[C@H]2CC[C@H](C3CCC4(CC3)CN(c3ccc(C(=O)N[C@H]5CC[C@H](Oc6ccc(C#N)c(Cl)c6)CC5)nn3)C4)CC2)C1`
[out] 9.00 to 10.00

[in] Form field: reported pIC50 of `CC(=O)N1CCc2c(c(N3CCCc4cc(C#N)ccc43)nn2[C@H]2C[C@H](CC3CCN(c4ccc(C(=O)N[C@H]5CC[C@H](Oc6ccc(C#N)c(Cl)c6)CC5)nn4)CC3)C2)C1`
[out] 9.00 to 10.00

[in] Form field: reported pIC50 of `CC(=O)N1CCc2c(c(N3CCCc4cc(-c5nccs5)c(C(F)F)cc43)nn2C2CCN(CC3CCN(c4ccc(C(=O)N[C@H]5CC[C@H](Oc6ccc(C#N)c(Cl)c6)CC5)nn4)CC3)CC2)C1`
[out] 9.00 to 10.00

[in] Form field: reported pIC50 of `CC(=O)N1CCc2c(c(N3CCCc4cc(-c5cnn(C)c5)c(C(F)F)cc43)nn2C2CCN(C3CC4(C3)CN(c3ccc(C(=O)N[C@H]5CC[C@H](Oc6ccc(C#N)c(Cl)c6)CC5)nn3)C4)CC2)C1`
[out] ≥ 10.00

[in] Form field: reported pIC50 of `CC(=O)N1CCc2c(c(N3CCCc4cc(-c5cnn(C)c5)c(C(F)F)cc43)nn2C2CCN([C@@H]3CCN(c4ccc(C(=O)N[C@H]5CC[C@H](Oc6ccc(C#N)c(Cl)c6)CC5)nn4)C[C@@H]3C)CC2)C1`
[out] ≥ 10.00

---

System: VCaP cells
Assay: VCaP growth inhibition assay (CTG)
Assay type: cell-based
Settings: Homo sapiens, 216 h, 30 pM R1881, 9 days
pIC50: −log10 of the molar value.
So I've got a bunch of compounds here, and I need their pIC50 values.

[in] Form field: reported pIC50 of CC(=O)N1CCc2c(c(-c3cccc4cc(-c5cnn(CC6CC7(C6)CN(c6ccc(C(=O)N[C@H]8CC[C@H](Oc9ccc(C#N)c(Cl)c9)CC8)nn6)C7)c5)ncc34)nn2C2CCOCC2)C1 [Compound 46]
[out] 9.00 to 10.00

[in] Form field: reported pIC50 of CC(=O)N1CCc2c(c(N3CCCc4cc(-c5cnn(C)c5)c(C(F)F)cc43)nn2[C@H]2CC[C@H](N3CCC4(CC3)CC(Oc3ccc(C(=O)N[C@H]5CC[C@H](Oc6ccc(C#N)c(Cl)c6)CC5)nn3)C4)CC2)C1 [Compound 248]
[out] 9.00 to 10.00

[in] Form field: reported pIC50 of Cn1cc(-c2cc3cccc(-c4cc(C5CCN(CC6CCN(c7ccc(C(=O)N[C@H]8CC[C@H](Oc9ccc(C#N)c(Cl)c9)CC8)nn7)CC6)CC5)c5c(c4)n(C)c(=O)n5C)c3cn2)cn1 [Compound 31]
[out] ≥ 10.00

[in] Form field: reported pIC50 of CC(=O)N1CCc2c(c(-c3cccc4cc(-c5ccc(CCC6CC7(C6)CN(c6ccc(C(=O)N[C@H]8CC[C@H](Oc9ccc(C#N)c(Cl)c9)CC8)nn6)C7)nc5)ncc34)nn2C2CCOCC2)C1 [Compound 48]
[out] ≥ 10.00

[in] Form field: reported pIC50 of CC(=O)N1CCc2c(c(-c3cccc4cc(-c5ccc(CCC6CCN(c7ccc(C(=O)N[C@H]8CC[C@H](Oc9ccc(C#N)c(Cl)c9)CC8)cn7)CC6)cc5)ncc34)nn2C2CCOCC2)C1 [Compound 166]
[out] 9.00 to 10.00

---

Biological target: AR / CBP ternary complex (Homo sapiens, UniProt P10275+Q92793)
Sequence (P10275 whole entry): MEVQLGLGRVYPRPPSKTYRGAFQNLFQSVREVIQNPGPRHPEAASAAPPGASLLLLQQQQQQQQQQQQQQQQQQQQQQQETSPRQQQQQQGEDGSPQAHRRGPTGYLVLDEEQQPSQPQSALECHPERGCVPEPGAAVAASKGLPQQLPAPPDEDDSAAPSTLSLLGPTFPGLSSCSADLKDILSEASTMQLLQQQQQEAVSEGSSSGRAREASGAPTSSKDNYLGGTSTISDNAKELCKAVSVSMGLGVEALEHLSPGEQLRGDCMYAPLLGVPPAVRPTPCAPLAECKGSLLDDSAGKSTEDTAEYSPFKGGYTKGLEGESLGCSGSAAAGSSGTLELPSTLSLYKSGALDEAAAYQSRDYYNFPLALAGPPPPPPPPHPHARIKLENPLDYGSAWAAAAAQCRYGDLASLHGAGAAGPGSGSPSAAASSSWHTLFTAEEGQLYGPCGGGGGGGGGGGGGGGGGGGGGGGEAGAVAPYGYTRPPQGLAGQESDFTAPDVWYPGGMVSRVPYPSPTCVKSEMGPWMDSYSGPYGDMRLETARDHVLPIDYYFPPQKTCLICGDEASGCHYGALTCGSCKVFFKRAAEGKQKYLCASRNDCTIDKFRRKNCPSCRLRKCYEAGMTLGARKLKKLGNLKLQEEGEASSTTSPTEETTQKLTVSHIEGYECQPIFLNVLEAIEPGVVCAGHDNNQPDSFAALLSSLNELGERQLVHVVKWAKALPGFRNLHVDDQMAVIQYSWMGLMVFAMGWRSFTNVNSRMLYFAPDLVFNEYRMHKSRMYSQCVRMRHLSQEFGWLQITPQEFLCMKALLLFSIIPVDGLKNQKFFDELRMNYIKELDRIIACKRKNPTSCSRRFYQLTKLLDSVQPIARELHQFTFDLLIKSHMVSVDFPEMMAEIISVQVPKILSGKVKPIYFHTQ
Sequence (Q92793 2-2442): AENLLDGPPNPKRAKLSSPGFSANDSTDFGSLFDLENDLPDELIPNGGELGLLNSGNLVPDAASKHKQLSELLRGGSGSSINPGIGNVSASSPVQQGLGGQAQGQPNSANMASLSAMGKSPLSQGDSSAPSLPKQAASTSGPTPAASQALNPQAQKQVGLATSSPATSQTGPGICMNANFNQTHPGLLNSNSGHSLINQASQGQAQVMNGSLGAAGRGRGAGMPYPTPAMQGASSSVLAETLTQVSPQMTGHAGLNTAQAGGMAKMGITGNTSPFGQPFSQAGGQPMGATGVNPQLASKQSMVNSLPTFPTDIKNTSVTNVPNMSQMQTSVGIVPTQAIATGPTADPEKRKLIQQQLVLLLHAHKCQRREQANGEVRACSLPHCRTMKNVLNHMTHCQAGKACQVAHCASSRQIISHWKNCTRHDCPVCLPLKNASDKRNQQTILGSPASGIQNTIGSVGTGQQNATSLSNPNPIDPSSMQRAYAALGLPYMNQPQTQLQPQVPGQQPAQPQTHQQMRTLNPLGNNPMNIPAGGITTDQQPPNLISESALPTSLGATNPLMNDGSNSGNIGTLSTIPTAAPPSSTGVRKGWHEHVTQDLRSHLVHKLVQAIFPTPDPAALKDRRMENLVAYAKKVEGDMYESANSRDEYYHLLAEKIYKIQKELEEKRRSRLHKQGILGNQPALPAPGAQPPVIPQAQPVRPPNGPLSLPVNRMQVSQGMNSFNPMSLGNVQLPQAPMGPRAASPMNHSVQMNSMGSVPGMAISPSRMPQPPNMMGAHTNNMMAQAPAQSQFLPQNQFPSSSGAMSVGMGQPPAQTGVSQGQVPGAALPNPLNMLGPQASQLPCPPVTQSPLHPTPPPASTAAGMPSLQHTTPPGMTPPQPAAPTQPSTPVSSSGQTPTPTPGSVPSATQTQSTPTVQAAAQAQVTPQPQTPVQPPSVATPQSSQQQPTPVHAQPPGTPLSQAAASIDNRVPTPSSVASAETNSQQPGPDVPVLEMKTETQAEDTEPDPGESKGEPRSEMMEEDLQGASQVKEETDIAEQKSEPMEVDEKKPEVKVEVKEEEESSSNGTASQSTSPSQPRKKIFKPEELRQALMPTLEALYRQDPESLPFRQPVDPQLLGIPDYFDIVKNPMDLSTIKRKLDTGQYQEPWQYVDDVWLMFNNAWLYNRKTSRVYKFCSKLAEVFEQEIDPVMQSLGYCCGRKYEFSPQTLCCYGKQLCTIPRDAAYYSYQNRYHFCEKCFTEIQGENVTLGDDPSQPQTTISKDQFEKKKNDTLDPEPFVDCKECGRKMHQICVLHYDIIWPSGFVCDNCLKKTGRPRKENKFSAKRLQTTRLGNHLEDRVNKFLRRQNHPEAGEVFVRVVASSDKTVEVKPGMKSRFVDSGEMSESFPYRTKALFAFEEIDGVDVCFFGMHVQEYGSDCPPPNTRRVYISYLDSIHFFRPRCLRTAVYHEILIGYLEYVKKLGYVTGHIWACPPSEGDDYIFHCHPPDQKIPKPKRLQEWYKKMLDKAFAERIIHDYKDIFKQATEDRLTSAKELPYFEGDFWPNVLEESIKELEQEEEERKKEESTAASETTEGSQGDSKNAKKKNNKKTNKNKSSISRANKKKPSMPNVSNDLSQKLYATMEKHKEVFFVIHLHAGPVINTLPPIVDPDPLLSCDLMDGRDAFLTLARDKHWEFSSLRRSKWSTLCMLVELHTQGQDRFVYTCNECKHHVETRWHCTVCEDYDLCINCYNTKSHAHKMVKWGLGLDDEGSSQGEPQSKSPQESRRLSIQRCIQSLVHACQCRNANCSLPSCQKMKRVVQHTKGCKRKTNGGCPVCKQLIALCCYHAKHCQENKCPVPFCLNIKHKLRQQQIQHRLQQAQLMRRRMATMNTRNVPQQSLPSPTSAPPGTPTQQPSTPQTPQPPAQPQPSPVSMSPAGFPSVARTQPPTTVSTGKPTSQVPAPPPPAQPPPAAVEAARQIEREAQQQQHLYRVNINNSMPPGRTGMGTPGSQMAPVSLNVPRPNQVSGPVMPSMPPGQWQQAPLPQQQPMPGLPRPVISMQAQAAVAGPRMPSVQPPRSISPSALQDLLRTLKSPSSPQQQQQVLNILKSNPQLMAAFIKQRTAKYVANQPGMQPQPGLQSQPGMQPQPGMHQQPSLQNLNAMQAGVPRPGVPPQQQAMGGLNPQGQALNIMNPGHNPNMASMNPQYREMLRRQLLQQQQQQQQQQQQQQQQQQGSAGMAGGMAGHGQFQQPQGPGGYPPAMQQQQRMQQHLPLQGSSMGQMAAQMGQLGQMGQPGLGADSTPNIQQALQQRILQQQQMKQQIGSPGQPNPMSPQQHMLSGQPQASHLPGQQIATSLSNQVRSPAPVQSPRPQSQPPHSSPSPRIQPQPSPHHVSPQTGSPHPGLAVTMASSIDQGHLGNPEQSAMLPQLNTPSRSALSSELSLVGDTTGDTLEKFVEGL
Experiment: Ternary complex formation assay (sandwich ELISA, AR capture, CBP antibody detection) in VCaP cell lysates
Assay type: cell-based
Conditions: treated 1.5 hours, rabbit CBP or p300 antibody detection, average, read-out: Average Ternary Complex
pEC50: −log10 of the molar value.
measurement type: pEC50

[in] Form field: reported pEC50 of `CC(=O)N1CCc2c(c(N3CCCc4cc(-c5cnn(C)c5)c(C(F)F)cc43)nn2[C@H]2CC[C@H](N3CCN(c4ccc(C(=O)N[C@H]5CC[C@H](Oc6ccc(C#N)c(Cl)c6)CC5)nn4)CC3)CC2)C1`
[out] > 9.00

[in] Form field: reported pEC50 of `CC(=O)N1CCc2c(c(N3CCCc4cc(-c5cnn(C)c5)c(C(F)F)cc43)nn2[C@H]2CC[C@@H](OC3CN(c4ccc(C(=O)N[C@H]5CC[C@H](Oc6ccc(C#N)c(Cl)c6)CC5)nn4)C3)CC2)C1`
[out] > 9.00
